system: Saccharomyces cerevisiae; test: protein stability index of tFT-peptide fusion (C-terminal peptide) (PSI (0-1 scale)); higher = more stable (slower turnover); settings: genetic background: wild type; temperature: 30 C
protein stability index listing for selected sequences.
The answer should be written as a number, with no unit following it.

Past entries and their recorded results:
> print(dat)
                                    chain  measured
1  AAGKANKQFAKF [RPS11A C-terminal 12 aa]     0.807
2   VMSLYNLACKYI [SAM37 C-terminal 12 aa]     0.577
3    TDFENPNFRYTL [DAL5 C-terminal 12 aa]     0.794
4    SSKGFFSKLGCC [YCK2 C-terminal 12 aa]     0.677

Please find the next sequence below.
QUERY: For the sequence LYTFIVKKVKRD [GID12 C-terminal 12 aa] , give its reported protein stability index.
RESULT: 0.685

###

test system: Saccharomyces cerevisiae; test: protein stability index of tFT-peptide fusion (C-terminal peptide) (PSI (0-1 scale)); higher = more stable (slower turnover); conditions: genetic background: wild type; temperature: 30 C
PROPERTY: protein stability index
The answer should be written as a number, with no unit following it.

> print(dat)
          chain  measured
1  FQWVLDGYRCWD     0.694

QUERY: For the sequence VWAVALSRQGPC , give its reported protein stability index.
RESULT: 0.689

QUERY: For the sequence LFSLFFPTCFRF , give its reported protein stability index.
RESULT: 0.557

QUERY: For the sequence WCLDVGSVSWPF , give its reported protein stability index.
RESULT: 0.794

QUERY: For the sequence WVSFYLLFFFSF , give its reported protein stability index.
RESULT: 0.483

QUERY: For the sequence KFSFVVAVHAGL , give its reported protein stability index.
RESULT: 0.545

QUERY: For the sequence VPPSKQRSRIKD , give its reported protein stability index.
RESULT: 0.675

QUERY: For the sequence AVRLPFPLLVHL , give its reported protein stability index.
RESULT: 0.473

QUERY: For the sequence FSVLLLANFCFF , give its reported protein stability index.
RESULT: 0.482

QUERY: For the sequence CSSLLSSFSLRL , give its reported protein stability index.
RESULT: 0.671

QUERY: For the sequence HLPSPPPPPSRL , give its reported protein stability index.
RESULT: 0.744

###

tested on: Saccharomyces cerevisiae; experiment: protein stability index of tFT-peptide fusion (C-terminal peptide) (PSI (0-1 scale)); higher = more stable (slower turnover); details: genetic background: das1 deletion; temperature: 30 C
PROPERTY: protein stability index
The answer should be written as a number, with no unit following it.

Past entries and their recorded results:
> print(dat)
          chain  measured
1  LSFLALLLFFRI     0.363
2  LCIYNFGWWFCV     0.561
3  CVGLYCLFVLLG     0.273
4  VRGWLAYLRWII     0.631

QUERY: For the sequence FCSFSWFLFLRS , give its reported protein stability index.
RESULT: 0.329

QUERY: For the sequence PVCRQVGVRLVA , give its reported protein stability index.
RESULT: 0.525

QUERY: For the sequence KWGRFQQVMVIN , give its reported protein stability index.
RESULT: 0.5

QUERY: For the sequence VYCCVRSLRVAI , give its reported protein stability index.
RESULT: 0.471

QUERY: For the sequence LIMIRLLYLRLI , give its reported protein stability index.
RESULT: 0.269

QUERY: For the sequence WDLYFSVVYRVV , give its reported protein stability index.
RESULT: 0.403

QUERY: For the sequence PPLPPPPASVPP , give its reported protein stability index.
RESULT: 0.641

QUERY: For the sequence LSCFCLFCLSFC , give its reported protein stability index.
RESULT: 0.518

QUERY: For the sequence LEGRFLACRGIC , give its reported protein stability index.
RESULT: 0.598

QUERY: For the sequence WISVRIFISCFF , give its reported protein stability index.
RESULT: 0.191

QUERY: For the sequence VQVLVAIMDGRM , give its reported protein stability index.
RESULT: 0.371

QUERY: For the sequence SFLCGCVVCWLW , give its reported protein stability index.
RESULT: 0.397

QUERY: For the sequence LWFFVGFAVYGG , give its reported protein stability index.
RESULT: 0.346

QUERY: For the sequence HLKKKLKIRLIN , give its reported protein stability index.
RESULT: 0.645

QUERY: For the sequence CFFFCSLFLSFL , give its reported protein stability index.
RESULT: 0.436

QUERY: For the sequence LACGIDGYYWRH , give its reported protein stability index.
RESULT: 0.667

QUERY: For the sequence SFTPPRVCLCFS , give its reported protein stability index.
RESULT: 0.319

QUERY: For the sequence RAPPPSSLLSPP , give its reported protein stability index.
RESULT: 0.65

QUERY: For the sequence HGVRLHTVWVGG , give its reported protein stability index.
RESULT: 0.413

QUERY: For the sequence SSCLPAPPPLPL , give its reported protein stability index.
RESULT: 0.682

QUERY: For the sequence FILSLSFVFSRP , give its reported protein stability index.
RESULT: 0.425

These measurements were taken from the supplement of paper PMC10724198.
